Experiment: AUC (0 to infinity) in ICR mouse brain at 50 mg/kg, po administered via gavage measured after 0.25 to 24 hrs by UPLC/MS analysis
Format: ADME, organism-based
Set-up: dose 50 mg/kg, route oral, time infinity

# smiles-record, AUC(0-inf) [ng·h/mL]
measured = [
    ("Cc1ccc(-n2nc(C(=O)N3C[C@@H](C)N[C@@H](C)C3)nc2-c2ccc3c(c2)N(C2CCCC2)[C@H](C)C(=O)N3C)cc1", 2340),
]

----------
Experiment: Half life in ICR mouse plasma at 50 mg/kg, po administered via gavage measured after 0.25 to 24 hrs by UPLC/MS analysis
Format: ADME, organism-based

# smiles-record, half-life [h]
records = [
    ("Cc1ccc(-n2nc(C(=O)N3C[C@@H](C)N[C@@H](C)C3)nc2-c2ccc3c(c2)N(C2CCCC2)[C@H](C)C(=O)N3C)cc1", 2.8),
]
